EC50 values for the binders below.
# Assay system: T1, cyno Macaque CTLA-4 (cyno Macaque, UniProt G7PL88 36-161)
# T1 construct: ELISA antigen; construct not described; also called CynoCTLA-4; cyno CTLA-4
# T1 sequence: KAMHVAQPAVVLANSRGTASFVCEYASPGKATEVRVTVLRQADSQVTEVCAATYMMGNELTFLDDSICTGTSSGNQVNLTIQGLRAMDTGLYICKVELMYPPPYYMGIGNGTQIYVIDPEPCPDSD
# Procedure summary: ELISA, cyno CTLA-4 binding
Form entry: value (nM) — number only.

Solved cases below.
- Binder: "MAb A4 (13F10D7) (antibody, V domains shown, also called Murine MAb A4; murine antibody A4) VH: EVQLRQSGPELVKPGTSVKISCKASGYKFTDHFINWVKQNHGKSLEWIGDINPNNGGTNSNQKFEGKATLTVDKSSSTAYMELRSLTSEDSAVYYCARLRREYFYAMDYWGQGTSVTVSS VL: DIVMTQAAFSNPVTLGTSASISCRSSKSLLHSNGITYLYWYLQKPGQSPQLLIYQMSNLASGVPDRFSSSGSGTDFTLRISRVEAEDVGVYYCAQNLELPLTFGAGTKLELK"
  EC50 / nM: 0.024
- Binder: "MAb A2 (7G10D3) (antibody, V domains shown, also called murine antibody A2) VH: QIQLVQSGPELKKPGETVKISCKASGYTFTTYGMSWVKQTPGKGLKWMGWINTYSGVPTYADDFKGRFAFSLETSASTAYLQINNLKNEDTATYFCARGRDYYGSSYRLFGVWGTGTTVTVSS VL: DIQMTQTTSSLSASLGDRVTISCRASQDISNYLNWYQQKPDGTVKLLIYYTSILNSGVPSKFSGSGSGTDYSLTISNLEQEDIATYFCQQGNTLPWTFGGGTKLEIK"
  EC50 / nM: 0.01
- Binder: "MAb A3 (32G12D2) (antibody, V domains shown, also called murine antibody A3) VH: QVQLQQPGAELVRPGSSVKLSCKASGYTFTSYWMHWVKQRPIQGLEWIGNIDPSDSETHYNQNFKDKATLTVDKSSSTAYLQLSSLTSEDSAVYYCARRYTSSSFDYWGQGTTLTVSS VL: DIQMTQTTSSLSASLGDRVTVSCRASQDIRNYLNWYQQKPDGTVKLLIYFTSKLHSGVPSRFSGSGSGTDYFLAISNLEQEDIATYFCQQGNTLPYTFGGGTKLEIK"
  EC50 / nM: 0.054
- Binder: "MAb A1 (16A9E9) (antibody, V domains shown, also called murine antibody A1) VH: DVQLQESGPGLVKPSQSLSLTCSVTGDSITSGYYWNWIRQFPGNKLEWMGYISYDGINNYYPSLENRISITRDTSRNQFFLKLNSVTTEDTATYYCAREVVTPGVEVPAWYFDVWGTGTTVTVSS VL: DIVLTQSPTSLTVSLGQRAIISCKASQSVSFAGTGLMHWYQQKPGQQPKLLIYRASNLEAGVPTRFSGSGSRTDFTLNIHPVEEDDAATYYCQQSREYPWTFGGGTTLEIN"
  EC50 / nM: 0.01

Now look at this one.
EC50 for MAb A5 (32G4C12) (antibody, V domains shown, also called murine antibody A5) VH: QVQLQQSGPELVRPGASVKLSCKASGYTFTTYDINWVKQRPGQGLEWIGWIYPRDGSIIFNEKFKGKATLTVDTTSSTAYMELHSLTSEDSAVYFCARRGLLGPLDYWGQGTPLTVSS VL: DIVMTQSHKFMSTSVGDRVSITCKASQDVATTVAWYQQKPGQSPKLVIYWASTRHTGVPDRFTGSGSGTDFTLTISNVQSEDLADYFCQQYSSYPTFGVGTKLELK ?
0.045

// provenance: patent US20200055937A1
